The values you see were collected from paper PMC8699473.

Assay: Long-term stability in spiked pooled human plasma
Settings: validation standard MOV
observed-property: Long-term stability, 2 month, -80°C Accuracy [%]

{"smiles-input": "CCC1=C[C@@H]2CN(C1)Cc1c([nH]c3ccccc13)[C@@](C(=O)OC)(c1cc3c(cc1OC)N(C)[C@H]1[C@@](O)(C(=O)OC)[C@H](OC(C)=O)[C@]4(CC)C=CCN5CC[C@]31[C@@H]54)C2", "readout-value": "92.4%"}
{"smiles-input": "CCCS(=O)(=O)Nc1ccc(F)c(C(=O)c2c[nH]c3ncc(-c4ccc(Cl)cc4)cc23)c1F", "readout-value": "119.1%"}
{"smiles-input": "Cn1cnc2c(F)c(Nc3ccc(Br)cc3F)c(C(=O)NOCCO)cc21", "readout-value": "96.6%"}
{"smiles-input": "Cc1ccc(Nc2nccc(N(C)c3ccc4c(C)n(C)nc4c3)n2)cc1S(N)(=O)=O", "readout-value": "98.1%"}
{"smiles-input": "CC1(C)CCC(CN2CCN(c3ccc(C(=O)NS(=O)(=O)c4ccc(NCC5CCOCC5)c([N+](=O)[O-])c4)c(Oc4cnc5[nH]ccc5c4)c3)CC2)=C(c2ccc(Cl)cc2)C1", "readout-value": "110.0%"}
{"smiles-input": "CNCc1ccc(-c2[nH]c3cc(F)cc4c3c2CCNC4=O)cc1", "readout-value": "102.1%"}

input: Any idea what Long-term stability, 2 month, -80°C Accuracy [%] was measured for CN(C)C/C=C/C(=O)Nc1cc2c(Nc3ccc(F)c(Cl)c3)ncnc2cc1O[C@H]1CCOC1 ?
output: 96.0%
